Assay: Toxicity in CD-1 mice by i.p. injection
Assay type: in vivo, CD-1 white female mice
Conditions: mouse, in vivo, ip, 0.6 mg; 600 μg free AD; read-out: animals killed
Method: CD-1 white female mice, 5-7 weeks of age, weighing 30-33 g were injected by the intraperitoneal (i.p.) route with AD at concentrations of 0.6 mg and 1.5 mg dissolved in 0.5 ml of sterile saline. A second group of animals were injected with AD-PGA(15%)-HSA/MS-Q with 0.6, 1.5, and 2.5 mg of bound AD. For each concentration of the free and bound drug, 5 mice were used. […] Animals were then observed over a two-month period and fatalities were recorded for each group and tabulated.
RECORDED_METRIC: mortality at 1460 h

Name the recorded mortality at 1460 h for COc1cccc2c1C(=O)c1c(O)c3c(c(O)c1C2=O)C[C@@](O)(C(=O)CO)C[C@@H]3O[C@H]1C[C@H](N)[C@H](O)[C@H](C)O1 [AD, Adriamycin] .
> 80%
